Read-out: ATP-citrate lyase (ACLY), ACLY (gene 47)
Assay: LTEA_HepaRG_ACLY: Life Technologies and Expression Analysis (LTEA) Assay for ATP-citrate lyase (ACLY) using HepaRG (AID 2283466)
Details: mRNA level, 48 h; actives raise or lower the signal
The source made the active and inactive calls. How the source made its calls: active means hit-call score of the fitted dose curve at least 0.9, where 1 is the maximum; inactive means score below 0.9.
Output constraint: value belongs to active, inactive

Here's what some known entries look like.
>>> classname("Nc1cccc(N)c1")
"inactive"
>>> classname("O=C(O)c1cccc(Oc2ccccc2)c1")
"inactive"
>>> classname("CCCCCCCCCCCCCCCO")
"inactive"
>>> classname("CC(C)=CCC/C(C)=C/CO")
"inactive"
>>> classname("CNS(=O)(=O)c1cc(C(=O)N2CCC(CCN3C4CCC3CC(n3c(C)nc5ccccc53)C4)(c3cccc(F)c3)CC2)c(Cl)cc1F (stereo not drawn)")
"active"
>>> classname("O=c1n(CC2CO2)c(=O)n(CC2CO2)c(=O)n1CC1CO1 (stereo not drawn)")
"inactive"
>>> classname("CC(C)=CCCC(C)=CC=O")
"inactive"
>>> classname("C=CCCCCCCCCC(=O)O")
"inactive"

[in] So what was the verdict on COCCOCCOCCOC in this test?
[out] inactive

[in] Entry to check: CCCCC(CC)COC(=O)CCCCCCCCC(=O)OCC(CC)CCCC (stereo not drawn)
[out] inactive

[in] Entry to check: CC(C)c1cccc(C(C)C)c1N1C(=O)c2ccc(O)cc2C1=O
[out] active

[in] Entry to check: O=C(O)CCN(C1(C(=O)NO)CCCC1)S(=O)(=O)c1ccc(Oc2ccc(F)cc2)cc1
[out] inactive

[in] Entry to check: COC(=O)c1ccccc1O
[out] inactive

[in] Entry to check: Cn1cnc([N+](=O)[O-])c1Sc1ncnc2nc[nH]c12
[out] inactive

[in] Entry to check: O=C(NS(=O)(=O)/C=C/c1ccccc1)c1ccc(F)cc1Cl
[out] inactive

---

Listed below: AC50 values for each entry.
Molecular target: human Adrenergic, Beta 1 Receptor (Adrb1), ADRB1 (gene 153) (UniProt P08588)
Sequence (P08588 whole entry, looked up): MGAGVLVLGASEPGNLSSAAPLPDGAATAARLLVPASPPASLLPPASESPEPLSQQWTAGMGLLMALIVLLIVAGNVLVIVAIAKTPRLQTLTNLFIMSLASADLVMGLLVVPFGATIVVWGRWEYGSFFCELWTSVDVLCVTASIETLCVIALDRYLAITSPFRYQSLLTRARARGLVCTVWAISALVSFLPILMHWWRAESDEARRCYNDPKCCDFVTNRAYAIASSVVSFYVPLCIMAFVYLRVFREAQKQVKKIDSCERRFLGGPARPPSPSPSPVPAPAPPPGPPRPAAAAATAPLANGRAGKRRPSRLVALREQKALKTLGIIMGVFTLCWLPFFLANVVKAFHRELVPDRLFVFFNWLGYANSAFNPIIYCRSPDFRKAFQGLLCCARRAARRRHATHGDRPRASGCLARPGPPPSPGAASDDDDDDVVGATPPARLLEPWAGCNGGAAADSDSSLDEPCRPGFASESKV
Assay: NVS_GPCR_hAdrb1: NovaScreen (NVS) G Protein-Coupled Receptor Assay for human Adrenergic, Beta 1 Receptor (Adrb1) (AID 2283258)
Experimental: NVS_GPCR_hAdrb1 is a biochemical, single-readout assay that uses extracted gene-proteins from Human neuroepithelioma cells in a cell-free assay. Measurements were taken 2 hours after chemical dosing in a 96-well plate.NVS_GPCR_hAdrb1 is one of one assay component(s) measured or calculated from the NVS_GPCR_hAdrb1 assay. […] This assay endpoint, NVS_GPCR_hAdrb1, was analyzed in the positive analysis fitting direction relative to DMSO as the negative control and baseline of activity. […]
Inconclusive results are not listed. Active and inactive are the calls of the source. How the source made its calls: active means hit-call score of the fitted dose curve at least 0.9, where 1 is the maximum; inconclusive means response in the unintended direction; inactive means score below 0.9.

[in] What value of measured AC50 is listed for CCCCCCc1ccc(O)cc1O ?
[out] 25 µM (active)

[in] Entry to check: CCOC(=O)COc1ccc2c(c1)CC(NCC(O)c1cccc(Cl)c1)CC2 (stereo not given)
[out] 3.33 µM (active)

[in] Entry to check: COc1cccc(-c2ccc(/C=C\CN3CCCCCC3)cc2Cl)c1
[out] 22.6 µM (active)

[in] Entry to check: CCOC(=O)c1ccc(C2CCC(NC[C@H](O)COc3ccc(O)c(NS(C)(=O)=O)c3)CC2)cc1 (stereo not given in full)
[out] 1.84 µM (active)

[in] Entry to check: Cc1[nH]cnc1C[C@H]1CCc2c(C)c3ccccc3n2C1=O
[out] 1.04 µM (active)
